# credit: PubChem BioAssay (NCI)

# Test system: RXF 393 renal
# assay.comment: NCI tumour cell line growth inhibition, 48 h; in the data active = GI50 below about 0.43 µM; inactive = the rest
Hello, when you answer, please use one of the following outcomes: active, inactive

// known answers, use as guide
{"molecule": "CN1CCN(CCCOc2ccc3nc(Nc4ccc(Cl)c(C(F)(F)F)c4)ccc3c2)CC1", "discrete.label": "inactive"}
{"molecule": "COc1cc2c3c(n(CCCNC(=O)OCC4c5ccccc5-c5ccccc54)c(=O)c2cc1OC)-c1cc2c(cc1/C3=C\\CCNC(=O)OCC1c3ccccc3-c3ccccc31)OCO2", "discrete.label": "inactive"}
{"molecule": "COc1cc2ncnc(Nc3ccc(C)c(O)c3)c2cc1OC", "discrete.label": "inactive"}
{"molecule": "CC(=O)[O-].CCN(CC)c1ccc(C=NCCN=Cc2ccc(N(CC)CC)cc2[O-])c([O-])c1.[Mn+3]", "discrete.label": "inactive"}
{"molecule": "COc1ccc(Cn2cc3c(c2-c2ccccc2)CC(C)(C)c2cnoc2-3)cc1", "discrete.label": "inactive"}
{"molecule": "CCC[CH2][Sn]1([CH2]CCC)[O]CC(CN2CCCC2)[O]1 (centres undefined)", "discrete.label": "inactive"}

**Q:** Could you please tell me the result logged for `C[C@@]12CC=C3c4nc(Nc5cccc(O)c5)sc4CC[C@]3(C)[C@H]1CC[C@]1(C)C(=O)CC[C@@H]21` in this assay?
**A:** inactive

**Q:** Could you please tell me the result logged for CCCCC(O)(c1ccc(Cl)cc1)C(CN1CCOCC1)c1ccc(Cl)cc1 (centres undefined) in this assay?
**A:** inactive
